What viability was measured for each of the following?
experimental details: MRP1 drug-resistance reversers in H69AR cells – cell-based, doxorubicin co-treatment, pilot screen (AID 601)
assay setup: H69AR cells, CellTiter-Glo, 72 h; compound alone cytotoxicity; at 10 µM
Answers are plain numbers, in %.

The cases that follow already have their viability on record.
1) COc1cccc(CNC(=O)CCS(=O)(=O)c2cccc3nsnc23)c1 | 89.6
2) c1ccc2c(c1)nc(NC1CCCCC1)c1nncn12 | 90.8
3) O=C(Cn1cc2c(n1)CCCCC2)N1CCc2ccccc21 | 87.8
4) CCOC(=O)c1cc(NC(=O)SCC(=O)O)c(C)nc1C | 88.1
5) Cc1ccc(C)c(C(=O)CC2(O)C(=O)N(C)c3ccccc32)c1 (stereo not given) | 92.2

Value sought for every listed molecule: viability.
1. N#Cc1nc(-c2ccc(Cl)cc2)oc1NCCc1ccccn1
2. Cc1ccc(S(=O)(=O)c2nc(-c3ccco3)oc2SCC(=O)NCC2CCCO2)cc1 (stereo not given)
3. CCCCC(NS(=O)(=O)c1ccc(OC)cc1)C(=O)O (stereo not given)
4. CC(=O)Nc1ccc(S(=O)(=O)N2CCN(C(=O)CCC3CCCC3)CC2)cc1
5. C=CCOc1ccc(/C(CC)=N/O)c(OC)c1
6. NC(=O)CSc1cn(CCNC(=O)c2cccs2)c2ccccc12
7. CC(=O)C1=C(N2CCCCC2)CCC1=O

[104, 92.8, 98.4, 92.9, 101, 93.4, 98.3]

Value sought for every listed molecule: viability.
1. O=C(c1ccc(Br)o1)N(Cc1ccccc1)c1ccccn1
2. CCOC(=O)N1CCC(Nc2nc3ccccc3n3cnnc23)CC1
3. CCCOc1ccc2ccccc2c1/C=N/n1cnnc1

1: 92.9; 2: 87.1; 3: 72.3

====

What viability was measured for each of the following?
experimental details: reduced viability of SK-BR-3 breast cancer cells – cell-based, 24 h, human, pilot screen (AID 572);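 note: compound exposure lasted between 18 and 24 h rather than exactly 24 h; 100% = carrier-treated control wells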
assay setup: SK-BR-3 viability, CellTiter-Glo luminescence, at 10 µM, stronger effect = lower value
Give bare numbers, in %.

The cases that follow already have their viability on record.
1) Cc1onc(-c2ccccc2Cl)c1C(=O)N1CCc2ccccc21 | 87.5
2) CC(OC(=O)C1CC=CCC1C(N)=O)C(Cl)=C(Cl)Cl (stereo unspecified) | 88

Value sought for every listed compound: viability.
1. O=C(Nc1ccc(N2C(=O)C3C4C=CC(C4)C3C2=O)cc1)Nc1nncs1 (stereo unspecified)
2. CC(C)Cc1nnc(NS(=O)(=O)c2ccc(Cl)cc2)s1
3. CCOc1ccc(C2CC(c3cccc(OC)c3)Nc3nc(N)nn32)cc1 (stereo unspecified)
4. Cc1ccc(C)c(NC(=O)CSc2nnc(-c3ccccc3)o2)c1

1: 92; 2: 91.5; 3: 91.5; 4: 89.5

====

What growth inhibition was measured for each of the following?
experimental details: S. cerevisiae growth inhibition in permissive medium (OD615), pilot counter-assay for S. cerevisiae lifespan shortening project, permissive growth control (AID 705)
assay setup: OD615, 24 h, at 10 µM, stronger effect = higher value
Answers are plain numbers, in %.

1. CCOC(=O)c1c(C)c(C(=O)O)n(C)c1C | -12.4
2. CCOc1ccccc1N1Cc2cc(C)c(C)cc2C1 | -16.8
3. Cn1c(=O)c2cc(S(=O)(=O)NC(Cc3ccccc3)C(=O)NCc3ccco3)ccc2n(C)c1=O (stereo not given) | -16.4

Value sought for every listed compound: growth inhibition.
1. O=C(Nc1nc2c(s1)CCCC2)C1COc2ccccc2O1 (stereo not given)
2. Cc1ccc(-n2nc(C)c3c2OC(N)=C(C#N)C3c2cccs2)cc1 (stereo not given)
3. O=C(Cn1ncc2c(=O)oc3ccccc3c21)NCCCN1CCCC1=O

[-5.28, -14.8, 1.48]

====

What growth inhibition was measured for each of the following?
experimental details: S. cerevisiae growth inhibition in permissive medium (OD615), pilot counter-assay for S. cerevisiae lifespan shortening project, permissive growth control (AID 705)
assay setup: OD615, 24 h, at 10 µM, stronger effect = higher value
Answers are plain numbers, in %.

The cases that follow already have their growth inhibition on record.
1) COc1ccccc1C1N(c2cc(Cl)ccc2OC)C(=O)C2CCCN21 (stereo not drawn) | 8.71
2) Cc1cc(C)cc(N(CC(=O)NC2CCC(C)CC2)S(=O)(=O)c2c(C)noc2C)c1 (stereo not drawn) | -23.2
3) O=C(c1ccc(CSCc2ccccc2F)o1)N1CCN(c2ccc(N3CCOCC3)nn2)CC1 | 1.75
4) Cc1cc(C)n2c(SCC(=O)Nc3cc(C)on3)nnc2n1 | -7.78

Value sought for every listed molecule: growth inhibition.
1. CC(=O)Nc1ccc(NC(=O)CSc2nccn2Cc2ccccc2)cc1
2. CCCCNC(=O)Nc1ccnn1C1CCCCC1
3. O=c1nc2s/c(=C\c3ccco3)c(=O)n2nc1Cc1ccccc1

1: -0.94; 2: -5.58; 3: -15.4

Value sought for every listed molecule: growth inhibition.
1. COc1ccccc1NC(=O)N1CCN(c2cccc(C(F)(F)F)c2)CC1
2. CCOC(=O)c1sc2nc(NC(=O)c3cccs3)sc2c1C
3. COc1ccccc1S(=O)(=O)Cc1ccc(C(=O)N2CCN(c3ccccn3)CC2)o1
4. O=C(c1ccco1)c1nnn(Cc2ccccc2)c1-c1ccccc1
5. CCCn1c(CN2CCN(C(=O)c3ccco3)CC2)nc2c1c(=O)n(C)c(=O)n2C

-10.8
5.51
-6.28
-6.81
-14.1

Value sought for every listed molecule: growth inhibition.
1. CCN(CC)C(=O)C1CCCN(c2ncnc3c2cnn3-c2ccc(Cl)cc2)C1 (stereo not drawn)
2. COc1cc(OC)c(NC2c3ccccc3C(=O)N2c2cc(C)ccn2)cc1Cl (stereo not drawn)
3. COc1ccc(-c2nc(C(N)=O)c3[nH]c(=O)n(-c4ccccc4OC)c3n2)c(OC)c1
4. CCCC(=O)c1cc(F)c(N2CCN(S(=O)(=O)c3ccccc3)CC2)cc1C
5. CCOC(=O)N1CCC(NC(=O)c2cc3ccccn3n2)CC1
6. Cc1cc(=O)oc2cc(OCC(O)CN3CCN(c4ccc(F)cc4)CC3)ccc12 (stereo not drawn)

-7.13
-11.7
-0.775
-7.04
1.83
-10.4

====

experimental details: Her2 expression decrease, cell viability multiplex – SKBR3 breast tumor cells, AlphaScreen, ATP viability, primary screen (AID 461);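 note: percent of carrier control wells set as 100% viability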
assay setup: SKBR3 Her2 protein level, 18-24 h, measured here: SKBR3 viability, ATP luminescence, at 10 µM
experimental readout: viability (%)
Answers are plain numbers, in %.

1) CCCCc1ccc(NC(=O)C2CCCO2)cc1 (stereo unspecified) | 92

Value sought for every listed compound: viability.
1. CCOc1ccc(N(C(C)C(=O)NC2CCCCCC2)S(C)(=O)=O)cc1 (stereo unspecified)
2. CCCCC(=O)NCCc1cc2c(C)ccc(C)c2[nH]c1=O
3. CCN(CC)c1ccc(NC(=O)c2nc3nc(C)cc(C(F)F)n3n2)cc1

1: 90.5; 2: 101; 3: 122

Value sought for every listed compound: viability.
1. COc1ccc(S(=O)(=O)Cc2ccc(C(=O)NCCc3ccc(S(N)(=O)=O)cc3)o2)cc1
2. CC1=C(C(=O)Nc2cccnc2)C(c2ccc(C(C)C)cc2)n2ncnc2N1 (stereo unspecified)
3. O=C(CCCn1c(=O)c2sccc2n(Cc2cc(=O)n3ccccc3n2)c1=O)NCc1ccco1
4. COc1ccc(C2C(C(=O)Nc3cccnc3)=C(C)Nc3nc(-c4cccs4)nn32)cc1OC (stereo unspecified)
5. O=C(CN1CCN(Cc2ccccc2F)C1=O)NCc1cccnc1

1. 94.5
2. 89.5
3. 82.5
4. 59
5. 94.5

Value sought for every listed compound: viability.
1. COc1ccc(S(=O)(=O)N(CC(=O)N2CCN(c3ccccc3OC)CC2)c2ccccc2)cc1
2. CCCN1CCN(CCCNC(=O)Cn2ncc3c4ccccc4n(C)c3c2=O)CC1

74
99

====

What RAM network inhibition was measured for each of the following?
experimental details: RAM signaling pathway blockade in yeast – S. cerevisiae, Pdr1DBD-CYC8 efflux-inhibited sensitized strain, primary screen (AID 1298);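 note: 0% = DMSO untreated cells without growth and 100% = 10 µM 1-NA-PP1 full growth; higher means more yeast growth rescued from 5-FOA killing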
assay setup: S. cerevisiae cbk1-as DSE1-URA3 strain, 5-FOA growth OD615, 2 d; at 50 µM; stronger effect = higher value
Give bare numbers, in %.

The cases that follow already have their RAM network inhibition on record.
1) Oc1ccc(-c2n[nH]c(=S)n2Cc2ccccc2)cc1 | -0.9
2) CN1CCN(C(=O)c2ccccc2NC(=O)c2cccs2)CC1 | 2.03
3) C=CCSc1nc2sc(C)c(C)c2c(=O)[nH]1 | 4.66
4) COc1ccc(N(C)C(=O)c2ccc3snnc3c2)cc1 | 0.05
5) CN(C)CCNc1oc(-c2ccccc2F)nc1C#N | 1.9

Value sought for every listed compound: RAM network inhibition.
1. O=C(OCn1nnc2ccccc2c1=O)c1cc2ccccc2o1
2. Cc1cc(NC(=O)CSc2nc3c(c(=O)n2CCc2ccccc2)SC(C)C3)no1 (stereo unspecified)
3. Cc1cc(C)n2nc(SCc3nc4ccccc4[nH]3)nc2n1
4. CCCOC(=O)C1C2C=CC3(CN(c4cccc(Cl)c4)C(=O)C13)O2 (stereo unspecified)
5. O=C(Nc1ncc(Cc2ccccc2)s1)C1CCCO1 (stereo unspecified)
6. O=C(Nc1ccc(N2C(=O)C3C4C=CC(C4)C3C2=O)cc1)Nc1nncs1 (stereo unspecified)

7.11
5.21
1.24
3.71
-2.16
3.5

Reference source for all entries: PubChem BioAssay
